Recorded values, source patent US11613531B2.

# TARGET OF ASSAY: Recombinant ROCK2 (amino acids 1-552) (Homo sapiens (Human), UniProt O75116)
# Sequence (O75116 1-552): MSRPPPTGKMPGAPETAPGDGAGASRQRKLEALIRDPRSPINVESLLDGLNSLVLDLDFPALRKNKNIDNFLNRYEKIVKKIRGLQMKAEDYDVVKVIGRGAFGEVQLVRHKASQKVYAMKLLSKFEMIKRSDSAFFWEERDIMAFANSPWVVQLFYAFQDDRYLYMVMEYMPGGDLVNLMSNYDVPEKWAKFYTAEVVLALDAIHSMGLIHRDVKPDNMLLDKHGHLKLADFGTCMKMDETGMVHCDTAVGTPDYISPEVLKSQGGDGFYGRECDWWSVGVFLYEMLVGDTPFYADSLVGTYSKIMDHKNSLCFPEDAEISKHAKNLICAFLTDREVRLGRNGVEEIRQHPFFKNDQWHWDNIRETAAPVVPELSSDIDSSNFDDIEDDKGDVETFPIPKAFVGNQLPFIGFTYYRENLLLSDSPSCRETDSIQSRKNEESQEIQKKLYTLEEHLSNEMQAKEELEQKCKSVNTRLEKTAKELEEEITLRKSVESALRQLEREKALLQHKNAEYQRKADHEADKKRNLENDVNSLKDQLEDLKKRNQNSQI
# TEST PROTOCOL: Z′-Lyte kinase assay, ROCK2
# Format: biochemical
# REPORTED CONDITIONS: 3 μM compound; read-out: ROCK2 % inh. @ [conc]
READOUT LABEL: inhibition at 3 µM (%)

MOLECULE: Cc1cc(Nc2ccc(-c3ccncc3)cc2)nc(N2CCCNC(C)C2)n1 (stereo not shown)
TARGET OF ASSAY: Recombinant ROCK2 (amino acids 1-552) (Homo sapiens (Human), UniProt O75116)
UNITS SYMBOL: %
inhibition at 3 µM: 100
--
MOLECULE: CCC1CCN(c2nccc(Nc3ccc4[nH]ncc4c3)n2)CCN1 (stereo not shown)
TARGET OF ASSAY: Recombinant ROCK2 (amino acids 1-552) (Homo sapiens (Human), UniProt O75116)
UNITS SYMBOL: %
inhibition at 3 µM: 100
--
MOLECULE: Cc1cc(Nc2ccc(-c3ccncc3)cc2)nc(N2CCNC(C)CC2)n1 (stereo not shown)
TARGET OF ASSAY: Recombinant ROCK2 (amino acids 1-552) (Homo sapiens (Human), UniProt O75116)
UNITS SYMBOL: %
inhibition at 3 µM: 100
--
MOLECULE: c1cc(Nc2ccc3[nH]ncc3c2)nc(N2CCCNCC2)n1
TARGET OF ASSAY: Recombinant ROCK2 (amino acids 1-552) (Homo sapiens (Human), UniProt O75116)
UNITS SYMBOL: %
inhibition at 3 µM: 98.9
--
MOLECULE: CC1CNCCN1c1nccc(Nc2ccc3[nH]ncc3c2)n1 (stereo not shown)
TARGET OF ASSAY: Recombinant ROCK2 (amino acids 1-552) (Homo sapiens (Human), UniProt O75116)
UNITS SYMBOL: %
inhibition at 3 µM: 104
--
MOLECULE: CC1CCN(c2nccc(Nc3ccc(-c4ccncc4)cc3)n2)CCN1 (stereo not shown)
TARGET OF ASSAY: Recombinant ROCK2 (amino acids 1-552) (Homo sapiens (Human), UniProt O75116)
UNITS SYMBOL: %
inhibition at 3 µM: 98.8
--
MOLECULE: Cc1cc(Nc2ccc3[nH]ncc3c2)nc(N2CCCNCC2)n1
TARGET OF ASSAY: Recombinant ROCK2 (amino acids 1-552) (Homo sapiens (Human), UniProt O75116)
UNITS SYMBOL: %
inhibition at 3 µM: 102
--
MOLECULE: CC1CN(c2nccc(Nc3ccc4[nH]ncc4c3)n2)CCCN1 (stereo not shown)
TARGET OF ASSAY: Recombinant ROCK2 (amino acids 1-552) (Homo sapiens (Human), UniProt O75116)
UNITS SYMBOL: %
inhibition at 3 µM: 98
--
MOLECULE: CC(C)C1CCN(c2nccc(Nc3ccc4[nH]ncc4c3)n2)CCN1 (stereo not shown)
TARGET OF ASSAY: Recombinant ROCK2 (amino acids 1-552) (Homo sapiens (Human), UniProt O75116)
UNITS SYMBOL: %
inhibition at 3 µM: 100
--
MOLECULE: CC1CCN(c2nccc(Nc3ccc4[nH]ncc4c3)n2)CCN1 (stereo not shown)
TARGET OF ASSAY: Recombinant ROCK2 (amino acids 1-552) (Homo sapiens (Human), UniProt O75116)
UNITS SYMBOL: %
inhibition at 3 µM: 93.4
--
MOLECULE: c1cc(Nc2ccc3[nH]ncc3c2)nc(N2CCNCC2)n1
TARGET OF ASSAY: Recombinant ROCK2 (amino acids 1-552) (Homo sapiens (Human), UniProt O75116)
UNITS SYMBOL: %
inhibition at 3 µM: 101
--
MOLECULE: CC1CCN(c2nc(Nc3ccc(-c4ccncc4)cc3)c3ccccc3n2)CCN1 (stereo not shown)
TARGET OF ASSAY: Recombinant ROCK2 (amino acids 1-552) (Homo sapiens (Human), UniProt O75116)
UNITS SYMBOL: %
inhibition at 3 µM: 100
--
MOLECULE: CCC1CN(c2nccc(Nc3ccc(-c4ccncc4)cc3)n2)CCCN1 (stereo not shown)
TARGET OF ASSAY: Recombinant ROCK2 (amino acids 1-552) (Homo sapiens (Human), UniProt O75116)
UNITS SYMBOL: %
inhibition at 3 µM: 100
--
MOLECULE: c1cc(Nc2ccc3[nH]ncc3c2)nc(N2CCC3(CCNCC3)C2)n1
TARGET OF ASSAY: Recombinant ROCK2 (amino acids 1-552) (Homo sapiens (Human), UniProt O75116)
UNITS SYMBOL: %
inhibition at 3 µM: 88.3
--
MOLECULE: c1ccc2c(Nc3ccc(-c4ccncc4)cc3)nc(N3CCCNCC3)nc2c1
TARGET OF ASSAY: Recombinant ROCK2 (amino acids 1-552) (Homo sapiens (Human), UniProt O75116)
UNITS SYMBOL: %
inhibition at 3 µM: 85.8
--
MOLECULE: c1cc(Nc2ccc3[nH]ncc3c2)nc(N2C3CCC2CNC3)n1
TARGET OF ASSAY: Recombinant ROCK2 (amino acids 1-552) (Homo sapiens (Human), UniProt O75116)
UNITS SYMBOL: %
inhibition at 3 µM: 101
--
MOLECULE: c1ccc(C2CCN(c3nccc(Nc4ccc5[nH]ncc5c4)n3)CCN2)cc1 (stereo not shown)
TARGET OF ASSAY: Recombinant ROCK2 (amino acids 1-552) (Homo sapiens (Human), UniProt O75116)
UNITS SYMBOL: %
inhibition at 3 µM: 100
--
MOLECULE: CC1CN(c2nccc(Nc3ccc(-c4ccncc4)cc3)n2)CCCN1 (stereo not shown)
TARGET OF ASSAY: Recombinant ROCK2 (amino acids 1-552) (Homo sapiens (Human), UniProt O75116)
UNITS SYMBOL: %
inhibition at 3 µM: 98.8
--
MOLECULE: c1cc(-c2ccc(Nc3ccnc(N4CCCNCC4)n3)cc2)ccn1
TARGET OF ASSAY: Recombinant ROCK2 (amino acids 1-552) (Homo sapiens (Human), UniProt O75116)
UNITS SYMBOL: %
inhibition at 3 µM: 85.6
